Here, each record is paired with measured pEC50 data.
target.or.test.system: HER2 (Homo sapiens, UniProt P04626)
Construct: BT474 and N87 cell lines which endogenously overexpress the HER2 wildtype (WT) protein; endogenous in cells; host or cells: BT474, N87
Sequence (P04626 23-1255): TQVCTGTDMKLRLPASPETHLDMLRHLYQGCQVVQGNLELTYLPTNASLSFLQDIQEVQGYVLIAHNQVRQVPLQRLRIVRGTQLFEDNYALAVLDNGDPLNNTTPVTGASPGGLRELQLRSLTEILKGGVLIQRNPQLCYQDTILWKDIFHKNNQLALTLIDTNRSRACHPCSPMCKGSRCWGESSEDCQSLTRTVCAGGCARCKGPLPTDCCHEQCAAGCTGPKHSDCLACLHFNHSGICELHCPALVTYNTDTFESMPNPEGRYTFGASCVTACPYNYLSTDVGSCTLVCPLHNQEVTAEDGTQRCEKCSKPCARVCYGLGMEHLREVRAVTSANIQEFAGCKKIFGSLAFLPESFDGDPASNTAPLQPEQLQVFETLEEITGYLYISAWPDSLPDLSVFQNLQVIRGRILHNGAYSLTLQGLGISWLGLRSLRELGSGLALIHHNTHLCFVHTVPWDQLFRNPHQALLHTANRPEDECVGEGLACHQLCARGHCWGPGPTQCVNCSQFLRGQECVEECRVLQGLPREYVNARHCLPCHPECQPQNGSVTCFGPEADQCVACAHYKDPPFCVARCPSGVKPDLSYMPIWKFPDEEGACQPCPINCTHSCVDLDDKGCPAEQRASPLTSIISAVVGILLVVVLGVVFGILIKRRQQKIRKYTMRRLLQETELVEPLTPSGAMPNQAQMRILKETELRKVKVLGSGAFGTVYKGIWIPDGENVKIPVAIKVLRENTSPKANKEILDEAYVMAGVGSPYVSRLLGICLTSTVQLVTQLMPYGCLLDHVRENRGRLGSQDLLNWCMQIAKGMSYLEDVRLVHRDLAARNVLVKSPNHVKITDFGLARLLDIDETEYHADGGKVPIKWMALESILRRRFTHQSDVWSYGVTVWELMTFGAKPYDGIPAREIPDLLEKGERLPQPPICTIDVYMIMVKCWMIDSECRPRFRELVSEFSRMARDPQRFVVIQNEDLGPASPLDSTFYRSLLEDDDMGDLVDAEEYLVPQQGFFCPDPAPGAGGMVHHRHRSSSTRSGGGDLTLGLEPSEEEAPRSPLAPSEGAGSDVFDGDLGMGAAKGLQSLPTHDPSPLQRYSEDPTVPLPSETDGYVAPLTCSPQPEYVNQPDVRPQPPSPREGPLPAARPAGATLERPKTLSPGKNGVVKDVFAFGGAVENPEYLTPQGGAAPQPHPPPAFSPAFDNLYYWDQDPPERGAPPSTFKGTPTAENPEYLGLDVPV
protocol.description: HER2 occupancy assay in BT474 cells
Type: cell-based
protocol.conditions: concentration at which 50% of HER2 is irreversible bound, read-out: BT474 HER2 Occ
pEC50: −log10 of the molar value.

{"columns": ["compound", "pEC50"],
 "data": [
  ["Cc1cc(Nc2ncnc3sc4c(c23)CCN(C(=O)/C=C/CN2CCOCC2)C4)ccc1Oc1ccc2ncnn2c1 [Compound 12]", "> 7.00"],
  ["CN(C)C/C=C/C(=O)N1CCc2c(sc3ncnc(Nc4ccc(Oc5ccc6ncnn6c5)c(Cl)c4)c23)C1 [Compound 5]", "> 7.00"],
  ["Cc1ccc(Oc2ccc(Nc3ncnc4sc5c(c34)CCN(C(=O)/C=C/CN(C)C)C5)cc2C)cn1 [Compound 8]", "> 7.00"]
]}
